Reported protein stability index values follow for various variants
B1: C8orf76 (parent)
chain: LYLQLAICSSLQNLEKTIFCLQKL

variants of: B1; assay: protein stability index of a GFP-peptide fusion (GPS, HEK-293T) (PSI 1-6); higher = more stable; details: c terminus: a fixed tail appended;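 also: lentivirally expressed fusions sorted by FACS into six bins by GFP to DsRed ratio, PSI derived from sequencing read proportions per bin multiplied by bin number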
Quick one: just the number, no unit, thanks!

// known answers, use as guide
1) L11E    4.55
2) Q12W    3.78
3) N13A    2.98
4) I18M    1.11
5) I7N    2.23

So, `L5H` ? Its protein stability index was 1.67

So, `Y2D` ? Its protein stability index was 1.07

So, `F19Y` ? Its protein stability index was 4.28

So, `C20E` ? Its protein stability index was 1.86

So, `L11M` ? Its protein stability index was 3.61

So, `A6C` ? Its protein stability index was 2.72

So, `L5N` ? Its protein stability index was 3.62

So, `Q22V` ? Its protein stability index was 2.58
